# procedure-summary: Standard protocol for determination of kcat and KM (continuous spectrophotometric assay, Acetyl CoA hydrolysis at 235 nm)
# Type: biochemical
# measurement-setup: purified protein; about 23° C.; pH 6.8; 0.2 mM acetyl CoA; glyphosate 0.125 to 10 mM
# Experimental: KM was calculated from the initial reaction rates obtained from concentrations of glyphosate ranging from 0.125 to 10 mM, using the Lineweaver-Burke transformation of the Michaelis-Menten equation. kcat/KM was determined by dividing the value determined for kcat by the value determined for KM. Using this methodology, kinetic parameters for a number of GAT polypeptides exemplified herein were determined. […]
Give Km for every item shown.
Give bare numbers, in µM.

Can you give me Km for all of these, one by one?
1. SEQ ID NO: 392: GAT polypeptide (protein, 6_20A7, GAT polypeptide) MIEVKPINAEDTYEIRHRILRPNQPLEACMYETDLLRGTFHLGGYYRGKLISIASFHQAEHSDLEGQKQYQLRGMATLEEYREQKAGSTLIRHAEELLRKKGADLLWCNARTSASGYYKKLGFSEQGEVYDIPPVGPHILMYKKLT
2. SEQ ID NO: 356: GAT polypeptide (protein, 30G8, GAT polypeptide) MIEVKPINAEDTYEIRHRILRPNQPLEACMFETDLLGGAFHLGGYYQGKLISIASFHQAEHSELEGQKQYQLRGMATLEGYREQKAGSTLIRHAEELLRKKGADLLWCNARTSVSGYYKKLGFSEQGEVYDIPPIGPHILMYKKLT

Resp:
1: 1000; 2: 1600
